The origin of these recorded values is patent US20230312550A1.

Experiment: Metabolic stability in rat hepatocytes (rHep)
Settings: n = 1 or geometric mean of n = 2-3
Item-by-item account of rHep CLint

1) N#C[C@@H]1CSCN1C(=O)CNC(=O)c1ccnc2ccc(N3CCC[C@H]3C3CC3)cc12 (single isomer, unassigned) [Example 200]: >300 μL/min/1E6
2) CC1(C)CCCN1c1ccc2nccc(C(=O)NCC(=O)N3CSC[C@H]3C#N)c2c1 [Example 57]: >300 μL/min/1E6
3) CO[C@H]1CCCN(c2ccc3nccc(C(=O)NCC(=O)N4CSC[C@H]4C#N)c3c2)C1 (mixture of isomers) [Example 41]: 12 μL/min/1E6

Moving on to the next compound.
Request: Endpoint output: rHep CLint of C[C@H]1CCN(c2ccc3nccc(C(=O)NCC(=O)N4CSC[C@H]4C#N)c3c2)C1=O (single isomer, unassigned) [Example 201] . Value?
Result: <1 μL/min/1E6
